assay: probe aLAP1 signal on lysate-treated microarray – cell lysate, small-molecule microarray, COS7 lysate, primary screen (AID 1124); conditions: probe aLAP1, fluorescence, higher = more signal;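 further: lysate comes from COS7 cells expressing LAP1 and is applied at 0.3 µg/mL; score merges spot fluorescence near 667 nm with signal-to-noise over triplicate slides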
measure: composite z-score
Please reply with the number alone, leaving off any unit.

Prompt: Which composite z-score is reported for this molecule? CN1C(=O)C2C=CC(C(O)c3cccc4ccccc34)N(NC(=O)OC(C)(C)C)C2C1=O (stereo not drawn)
Response: 1.57

Prompt: Which composite z-score is reported for this molecule? `CN(C)CCCCNC(=O)[C@H]1C[C@H]2C(=O)N[C@@H](CCCC[N+](C)(C)C)C(=O)N2[C@H]1c1cccc(OCCO)c1`
Response: 0.448

Prompt: Which composite z-score is reported for this molecule? C[C@H]1NC(=O)C([C@@H](C)OCc2ccccc2)NC(=O)[C@@]23C(=O)N[C@@H](Cc4ccccc4)C2[C@H](C)[C@@]2(C)O[C@H]2C3/C=C/CC/C=C/CNC1=O (stereo partly drawn)
Response: 0.03

Prompt: Which composite z-score is reported for this molecule? `COC(=O)[C@@]1(Cc2ccc(OC)cc2)[C@H]2c3cc(C(=O)N(C)C)n(Cc4cc(C)n(C)n4)c3C[C@H]2CN1C(=O)c1ccccc1`
Response: 0.898

Prompt: Which composite z-score is reported for this molecule? `C=C(CCCC)/C(=C/C[C@H](OC(=O)c1ccncc1)c1ccc(CO)o1)c1cc(C(=O)OC)ccc1OC`
Response: 0.51

Prompt: Which composite z-score is reported for this molecule? `CN(C)C(=O)[C@@]1(CCC(=O)OC(C)(C)C)COC(c2ccc(OCCCO)cc2)=N1`
Response: 0.723

Prompt: Which composite z-score is reported for this molecule? `[N-]=[N+]=Nc1ccccc1[C@@H]1OC(c2ccc(OCCCO)cc2)=N[C@]1(CCS(=O)(=O)c1ccccc1)C(=O)NCc1ccccc1`
Response: 0.48

Prompt: Which composite z-score is reported for this molecule? `NC(=O)NCC#Cc1ccc2c(c1)[C@]1(C(=O)N2)[C@H](c2ccc(OCCO)cc2)N2[C@H](c3ccccc3)[C@H](c3ccccc3)OC(=O)[C@H]2[C@@H]1C(=O)N1CCCCCCC1`
Response: 0.669

Prompt: Which composite z-score is reported for this molecule? C[C@]12C(=O)N(CCCCCO)[C@@H]3C(=O)N(c4ccc(Cl)cc4)CC=CC31O[C@@H]1/C=C\CCCOC(=O)C12 (stereo partly drawn)
Response: -0.615

Prompt: Which composite z-score is reported for this molecule? `COc1cc2c(cc1OC)CN(C(=O)[C@@H]1[C@H]3C(=O)O[C@H](c4ccccc4)[C@H](c4ccccc4)N3[C@H](c3ccc(OCCO)cc3)[C@@]13C(=O)Nc1ccc(C#CCCO)cc13)CC2`
Response: 0.364

Prompt: Which composite z-score is reported for this molecule? `C[N+](C)(C)CCCCCCNC(=O)[C@@H]1C[C@@H]2C(=O)NCC(=O)N2[C@@H]1c1cccc(OCCO)c1`
Response: -0.426

Prompt: Which composite z-score is reported for this molecule? `O=C1O[C@H](c2ccccc2)[C@H](c2ccccc2)N2[C@H]1[C@@H](C(=O)N1CCCCCCC1)[C@]1(C(=O)Nc3ccccc31)[C@H]2c1ccc(O)cc1`
Response: 1.65

Prompt: Which composite z-score is reported for this molecule? `O=C(O)[C@]1(CCS(=O)(=O)c2ccccc2)N=C(c2ccc(OCCCO)cc2)O[C@@H]1c1ccccc1`
Response: 0.341

Prompt: Which composite z-score is reported for this molecule? `CCCC[C@@H](O)C1=C(COc2ccccc2)Cn2c(=O)n(-c3ccccc3)c(=O)n2[C@H]1CO`
Response: 0.148

Prompt: Which composite z-score is reported for this molecule? `COc1ccccc1CN1C(=O)c2ccccc2[C@@H](C(=O)NCC(C)C)[C@@H]1c1ccc(CO)cc1`
Response: 0.537

Prompt: Which composite z-score is reported for this molecule? `COC(=O)[C@]1(Cc2ccccc2N=[N+]=[N-])N=C(c2ccc(OCCCO)cc2)O[C@@H]1c1ccccc1`
Response: 0.225

Prompt: Which composite z-score is reported for this molecule? `[N-]=[N+]=NCc1ccccc1[C@H]1OC(c2ccc(OCCCO)cc2)=N[C@@]1(Cc1ccccc1)C(N)=O`
Response: 0.112

Prompt: Which composite z-score is reported for this molecule? `COC(=O)[C@H]1N=C(c2ccc(OCCCO)cc2)O[C@H]1c1ccccc1CN=[N+]=[N-]`
Response: 0.427

Prompt: Which composite z-score is reported for this molecule? `O=C1O[C@H](c2ccccc2)[C@H](c2ccccc2)N2[C@H]1[C@@H](C(=O)N1CCN(c3ncccn3)CC1)[C@]1(C(=O)Nc3ccc(C#CCCO)cc31)[C@H]2c1ccccc1OCCO`
Response: 1.38

Prompt: Which composite z-score is reported for this molecule? `O=C1N(CCS(=O)(=O)c2ccccc2)c2ccccc2[C@H]2OC(c3ccc(OCCCO)cc3)=N[C@@]12CCS(=O)(=O)c1ccccc1`
Response: 0.226

Prompt: Which composite z-score is reported for this molecule? C=CC[C@]1(C(=O)NCC(O)CO)N=C(c2ccc(OCCCO)cc2)O[C@H]1c1ccccc1N=[N+]=[N-] (stereo partly drawn)
Response: 1.41

Prompt: Which composite z-score is reported for this molecule? O=C1OCCC=C[C@H]2OC34C=CCN(Cn5nnc6ccccc65)C(=O)[C@H]3N(CCCCCO)C(=O)[C@@H]4C12 (stereo partly drawn)
Response: 0.686

Prompt: Which composite z-score is reported for this molecule? `CCOC(=O)C[C@H]1[C@H](OC(=O)c2ccccc2-c2ccccc2)[C@@H](NC(=O)c2ccccc2)c2cc(OCCCO)ccc2N1C(=O)Cc1ccc(OC)cc1`
Response: 0.368

Prompt: Which composite z-score is reported for this molecule? `COc1ccc(C(=O)Nc2ccc3c(c2)[C@]2(O[C@@H](CCO)[C@H]([Si](C)(C)c4ccc(OC)cc4)[C@H]2C)C(=O)N3Cc2ccccc2)cc1`
Response: -0.352

Prompt: Which composite z-score is reported for this molecule? C=CCC(OC(C)=O)[C@@H]1[C@@H](N(Cc2cc3ccccc3o2)C(=O)Cc2ccc(OC)cc2)c2cc(OCCCO)ccc2N1C(=O)c1ccc(-c2ccccc2)cc1 (stereo partly drawn)
Response: -0.0843

Prompt: Which composite z-score is reported for this molecule? `COC(=O)[C@]1(Cc2ccccc2CN=[N+]=[N-])N=C(c2ccc(OCCCO)cc2)O[C@@H]1c1ccccc1`
Response: -0.779

Prompt: Which composite z-score is reported for this molecule? `CC(C)CNC(=O)[C@@]1(C)c2ccccc2C(=O)N(Cc2ccccc2)[C@H]1c1ccc(CO)cc1`
Response: 1.16

Prompt: Which composite z-score is reported for this molecule? `CN(C)C(=O)[C@@]1(CCS(=O)(=O)c2ccccc2)N=C(c2ccc(OCCCO)cc2)O[C@H]1c1ccccc1CN=[N+]=[N-]`
Response: 0.527

Where do the numbers come from? From PubChem BioAssay.
